experiment description: chemical genetic growth profiling, strain panel (AID 1159580);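 further: tested at 20 µM; growth read once vehicle control cultures reached saturation at 30 °C; 1 = growth at the plate median or of vehicle wells; lower values mean less growth of the strain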
condition parameters: S. cerevisiae deletion strains, growth OD, locus YJL154C, strain vps35, hits give low values
Out of some 5,500 compounds screened, about 2,000 (36%) were called active. About 18% were inconclusive and are not listed. The list shows a part of the results.
What normalized growth was measured for each of the following?
Give bare numbers.

Examples with their reported normalized growth follow.
For COc1ccc2ccc(=O)oc2c1 , what is its reported normalized growth?
0.999

For CC(C)c1c(O)ccc2c1CCC1C(C)(C)CCC[C@]21C (stereo partly drawn) , what is its reported normalized growth?
1.01

For CNC(=O)Oc1cccc2c1OC(C)(C)O2 , what is its reported normalized growth?
1

For CN(C)c1ccc2nc3ccc(=[N+](C)C)cc-3sc2c1 , what is its reported normalized growth?
1.06

For CCN[C@@H]1C[C@H](N)[C@@H](O[C@H]2OC(CN)=CC[C@H]2N)[C@H](O)[C@H]1OC1OC[C@](C)(O)[C@H](NC)[C@H]1O (stereo partly drawn) , what is its reported normalized growth?
0.996

For CC[n+]1c(-c2ccccc2)c2cc(N)ccc2c2ccc(N)cc21 , what is its reported normalized growth?
0.949

For NC(N)=NC(=O)c1nc(Cl)c(N)nc1N , what is its reported normalized growth?
1.01

Below: the item to evaluate.
For CCC1OC(=O)[C@H](C)C(=O)[C@H](C)[C@@H](OC2O[C@H](C)C[C@H](N(C)C)[C@H]2O)[C@](C)(OC)C2(CCCn3cnc(-c4cccnc4)c3)C[C@@H](C)C(=O)[C@H](C)[C@H]3N(C2)C(=O)O[C@]13C (stereo partly drawn) , what is its reported normalized growth?
0.977
